These data points were gathered from patent US20240025903A1.

Assay explanation: In vivo pharmacokinetics
Design: species or system Sprague-Dawley rats
Settings: both sexes, Sprague-Dawley; rat, PO (oral gavage), dose-corrected plasma AUC; read-out: AUC PO
Hi there, I'd appreciate the recorded AUC for every entry that follows.

response.value for CCC(C)CN1CC2N(Cc3ccc(OC(F)F)cc3)CCC(=O)N2[C@@H](C)C1=O (stereo partly shown) (field: AUC) = 0.001 to 0.1 µg·h/mL

response.value for CC1C(=O)N(CCC2CCC2)CC2N(C(=O)c3ccc(C(F)(F)F)cc3)CCC(=O)N12 (stereo not shown) (field: AUC) = 1 to 3 µg·h/mL

response.value for C=CCCN1CC2N(C(=O)c3ccc(C(F)(F)F)cc3)CCC(=O)N2C(C)C1=O (stereo not shown) (field: AUC) = 0.1 to 0.999 µg·h/mL

response.value for CC1C(=O)N(CC2CCC2)CC2N(C(=O)c3ccc(OC(F)F)cc3)CCC(=O)N12 (stereo not shown) (field: AUC) = 1 to 3 µg·h/mL

response.value for CCC(C)CN1CC2N(C(=O)c3ccc(C(F)(F)F)c(Cl)c3)CCC(=O)N2C(C)C1=O (stereo not shown) (field: AUC) = 0.1 to 0.999 µg·h/mL

response.value for CCC(C)CN1CC2N(C(=O)c3ccc(OC(F)F)cc3)CCC(=O)N2[C@@H](C)C1=O (stereo partly shown) (field: AUC) = 0.1 to 0.999 µg·h/mL

response.value for CCC(C)CN1CC2N(C(=O)c3ccc(F)cc3)CCC(=O)N2C(C)C1=O (stereo not shown) (field: AUC) = 0.1 to 0.999 µg·h/mL

response.value for CCC(C)CN1CC2N(Cc3ccc(O)nc3)CCC(=O)N2[C@@H](C)C1=O (stereo partly shown) (field: AUC) = 0.001 to 0.1 µg·h/mL

response.value for CCC(C)CN1CC2N(Cc3ccc(C(F)(F)F)cc3)CCC(=O)N2[C@@H](C)C1=O (stereo partly shown) (field: AUC) = 0.001 to 0.1 µg·h/mL

response.value for CCC(C)CN1CC2N(C(=O)c3ccc(C(F)(F)F)cc3)CCC(=O)N2[C@@H](C)C1=O (stereo partly shown) (field: AUC) = 0.1 to 0.999 µg·h/mL

====

Assay explanation: In vivo pharmacokinetics
Parameters: species or system Sprague-Dawley rats
Settings: both sexes, Sprague-Dawley; rat, IV (tail vein), dose-corrected plasma Cmax; read-out: CMAX IV
Hi there, I'd appreciate the recorded Cmax for every entry that follows.

response.value for CCC(C)CN1CC2N(C(=O)c3ccc(F)cc3)CCC(=O)N2C(C)C1=O (stereo not shown) (field: Cmax) = 100 to 999 ng/mL

response.value for CCC(C)CN1CC2N(C(=O)c3ccc(C(F)(F)F)c(Cl)c3)CCC(=O)N2C(C)C1=O (stereo not shown) (field: Cmax) = 100 to 999 ng/mL

response.value for CCC(C)CN1CC2N(Cc3ccc(OC(F)F)cc3)CCC(=O)N2[C@@H](C)C1=O (stereo partly shown) (field: Cmax) = 1000 to 3000 ng/mL

response.value for CCC(C)CN1CC2N(Cc3ccc(O)nc3)CCC(=O)N2[C@@H](C)C1=O (stereo partly shown) (field: Cmax) = > 3000 ng/mL

response.value for CCC(C)CN1CC2N(C(=O)c3ccc(C(F)(F)F)cc3)CCC(=O)N2[C@@H](C)C1=O (stereo partly shown) (field: Cmax) = 1000 to 3000 ng/mL

response.value for C=CCCN1CC2N(C(=O)c3ccc(C(F)(F)F)cc3)CCC(=O)N2C(C)C1=O (stereo not shown) (field: Cmax) = 100 to 999 ng/mL

response.value for CC1C(=O)N(CC2CCC2)CC2N(C(=O)c3ccc(OC(F)F)cc3)CCC(=O)N12 (stereo not shown) (field: Cmax) = 100 to 999 ng/mL

response.value for CCC(C)CN1CC2N(C(=O)c3ccc(OC(F)F)cc3)CCC(=O)N2[C@@H](C)C1=O (stereo partly shown) (field: Cmax) = 1000 to 3000 ng/mL

response.value for CCC(C)CN1CC2N(Cc3ccc(C(F)(F)F)cc3)CCC(=O)N2[C@@H](C)C1=O (stereo partly shown) (field: Cmax) = 100 to 999 ng/mL

response.value for CC1C(=O)N(CCC2CCC2)CC2N(C(=O)c3ccc(C(F)(F)F)cc3)CCC(=O)N12 (stereo not shown) (field: Cmax) = 1000 to 3000 ng/mL

====

Assay explanation: In vivo pharmacokinetics
Set-up: species or system Sprague-Dawley rats
Settings: both sexes, Sprague-Dawley, plasma; rat, PO (oral gavage); read-out: TMAX PO
Measured endpoint: Tmax

response.value for CCC(C)CN1CC2N(C(=O)c3ccc(C(F)(F)F)cc3)CCC(=O)N2[C@@H](C)C1=O (stereo partly shown) [Compound 1a] (field: Tmax) = 0.5 to 1 h

response.value for CCC(C)CN1CC2N(C(=O)c3ccc(C(F)(F)F)c(Cl)c3)CCC(=O)N2C(C)C1=O (stereo not shown) [Compound 12] (field: Tmax) = > 1 h

response.value for CC1C(=O)N(CCC2CCC2)CC2N(C(=O)c3ccc(C(F)(F)F)cc3)CCC(=O)N12 (stereo not shown) [Compound 20] (field: Tmax) = > 1 h

response.value for C=CCCN1CC2N(C(=O)c3ccc(C(F)(F)F)cc3)CCC(=O)N2C(C)C1=O (stereo not shown) [Compound 22] (field: Tmax) = 0.5 to 1 h

response.value for CCC(C)CN1CC2N(Cc3ccc(C(F)(F)F)cc3)CCC(=O)N2[C@@H](C)C1=O (stereo partly shown) [Compound 5a] (field: Tmax) = 0.5 to 1 h

response.value for CCC(C)CN1CC2N(Cc3ccc(O)nc3)CCC(=O)N2[C@@H](C)C1=O (stereo partly shown) [Compound 7a] (field: Tmax) = 0.5 to 1 h

response.value for CC1C(=O)N(CC2CCC2)CC2N(C(=O)c3ccc(OC(F)F)cc3)CCC(=O)N12 (stereo not shown) [Compound 14] (field: Tmax) = > 1 h

response.value for CCC(C)CN1CC2N(Cc3ccc(OC(F)F)cc3)CCC(=O)N2[C@@H](C)C1=O (stereo partly shown) [Compound 6a] (field: Tmax) = 0.5 to 1 h

response.value for CCC(C)CN1CC2N(C(=O)c3ccc(F)cc3)CCC(=O)N2C(C)C1=O (stereo not shown) [Compound 11] (field: Tmax) = < 0.5 h

response.value for CCC(C)CN1CC2N(C(=O)c3ccc(OC(F)F)cc3)CCC(=O)N2[C@@H](C)C1=O (stereo partly shown) [Compound 2a] (field: Tmax) = 0.5 to 1 h

====

Assay explanation: Turbidimetric solubility assay
Assay type: physicochemical
Settings: aqueous buffer, kinetic from dmso stock, PBS, 37° C., absorbance 620 nm
Hi there, I'd appreciate the recorded solubility at 2 h for every entry that follows.

response.value for CCC(C)CN1CC2N(C(=O)c3ccc(O)nc3)CCC(=O)N2[C@@H](C)C1=O (some centres unmarked) (field: solubility at 2 h) = > 300 µM

response.value for CC1C(=O)N(CCc2ccco2)CC2N(C(=O)c3ccc(OC(F)F)cc3)CCC(=O)N12 (centres unmarked) (field: solubility at 2 h) = > 300 µM

response.value for CCC(C)N1CC2N(Cc3ccc(O)cc3)CCC(=O)N2CC1=O (centres unmarked) (field: solubility at 2 h) = > 300 µM

response.value for CCC(C)CN1CC2N(Cc3ccc(OC(F)F)cc3)CCC(=O)N2C(CC(C)C)C1=O (centres unmarked) (field: solubility at 2 h) = > 100 µM

response.value for CCC(C)CN1CC2N(Cc3ccc(OC(F)F)cc3)CCC(=O)N2C(CC(=O)O)C1=O (centres unmarked) (field: solubility at 2 h) = > 300 µM

response.value for CCC(C)CN1CC2N(Cc3ccc(F)cc3)CCC(=O)N2C(C)C1=O (centres unmarked) (field: solubility at 2 h) = > 300 µM

response.value for CC1C(=O)N(CCS(C)(=O)=O)CC2N(C(=O)c3ccc(OC(F)F)cc3)CCC(=O)N12 (centres unmarked) (field: solubility at 2 h) = > 300 µM

response.value for CC1C(=O)N(CCC2CCC2)CC2N(Cc3ccc(OC(F)F)cc3)CCC(=O)N12 (centres unmarked) (field: solubility at 2 h) = > 300 µM

response.value for CC1C(=O)N(CC2CCCO2)CC2N(C(=O)c3ccc(OC(F)F)cc3)CCC(=O)N12 (centres unmarked) (field: solubility at 2 h) = > 100 µM

response.value for CC1C(=O)N(CC2CCCC2)CC2N(C(=O)c3ccc(OC(F)F)cc3)CCC(=O)N12 (centres unmarked) (field: solubility at 2 h) = > 300 µM

response.value for CCC(C)CN1CC2N(Cc3ccc(C(F)(F)F)cc3)CCC(=O)N2[C@@H](C)C1=O (some centres unmarked) (field: solubility at 2 h) = > 300 µM

response.value for C=CCCN1CC2N(C(=O)c3ccc(C(F)(F)F)cc3)CCC(=O)N2C(C)C1=O (centres unmarked) (field: solubility at 2 h) = > 300 µM

response.value for CC(C)CN1CC2N(C(=O)c3ccc(C(F)(F)F)cc3)CCC(=O)N2C(C)C1=O (centres unmarked) (field: solubility at 2 h) = > 300 µM

response.value for CC1C(=O)N(CCC2CCCC2)CC2N(Cc3ccc(OC(F)F)cc3)CCC(=O)N12 (centres unmarked) (field: solubility at 2 h) = > 100 µM

response.value for CCC(C)CN1CC2N(C(=O)c3ccc(OC(F)F)cc3)CCC(=O)N2[C@@H](C)C1=O (some centres unmarked) (field: solubility at 2 h) = > 300 µM

response.value for CCC(C)CN1CC2N(Cc3ccc(OC(F)F)cc3)CCC(=O)N2C(CC(N)=O)C1=O (centres unmarked) (field: solubility at 2 h) = > 300 µM

response.value for CCC(C)CN1CC2N(Cc3ccc(OC(F)F)cc3)CCC(=O)N2C(CF)C1=O (centres unmarked) (field: solubility at 2 h) = > 300 µM
